system: RPMI-8226 leukemia; assay: NCI-60 one-dose screen, 48 h; conditions: 10 µM unless noted
About 83,000 compounds went through this panel and 20% of them were active in at least one assay; those are over-represented in the sample as a whole. Calls of active or inactive are those of the source. How the source made its calls: active means growth percent below 10; inactive means the rest.
Just give me one of these, please: T (active), F (inactive)

Some solved cases for reference:
CC(C)OC(=O)Nc1cc(F)c(F)cc1F	F
COc1cc(NCc2ccccc2O)c2ncccc2c1	F
CCN=C1C=CC(=C(c2ccc(N(CC)CC)cc2)c2ccc(N(CC)CC)cc2)c2ccccc21	T

[Q] Hey, what did the test say about CC(C)C1=NOC(=O)C1=Cc1cn(-c2ccccc2)nc1-c1cccc([N+](=O)[O-])c1 ?
[A] T

[Q] Request: O=C(NCCCNC(=O)OCc1ccc2cccc(O)c2n1)OCc1ccc2cccc(O)c2n1
[A] F

[Q] For Cn1c(=O)c(C#N)c(-c2ccco2)n2c(S(=O)(=O)Cc3ccccc3)nnc12 then?
[A] F
